- experimentNotes: soluble on expression in E. coli; label from the status in PepcDB or PDB records
quantityKind: soluble on expression in E. coli

// worked examples, soluble on expression in E. coli included
**Q:** Reported soluble on expression in E. coli, sequence MGSDKIHHHHHHMESMLKKICQDPVLQKDKDFLLFLTSDDFSSESKKRAFLTGSGAINDSNDLSEVRISEIQLLGAEDAAEVLKNGGIDAESHKGFMSISFSSLPKYNEADEFFIEKKQKIDELEDNLKKLSKSLEMVDTSRNTLAASTEEFSSMVETLASLNVSEPNSELLNNFADVHKSIKSSLERSSLQETLTMGVMLDDYIRSLASVKAIFNQRSKLGYFLVVIENDMNKKHSQLGKLGQNIHSEKFREMRKEFQTLERRYNLTKKQWQAVGDKIKDEFQGFSTDKIREFRNGMEISLEAAIESQKECIELWETFYQTNL : ____
**A:** not soluble

**Q:** Need soluble on expression in E. coli of MNSRQQSILQMVVDKGQMSVAELAKITGVSEVTIRQDLNTLEKQSYLRRAHGFAVSLESDDVETRMMTNYTLKRRLAEFAASLVSPGESVFIENGSSNALLARTLAEQKDVTIITVSSYIAHLLKETPCEVILLGGIYQKKSESMVGPLTRQFIHQVHFSKAFIGIDGWQADTGFTGRDMMRSDVVNAVLEKGSEAIVLTDSSKFGCVHPYPLGPLSRFHRVITDSKISASDQMQLEHAGLLVNVIGSSV , thanks.
**A:** not soluble

**Q:** I have this sequence here, MEHDLNDMMVFLAVVETGSFTLAADRLGMPKANVSRKVSRLEKNLAVTLLERSTRSQHLTEAGRRYLAHCKRIHEELDLATASVCELFHSYTGELKIGASVASGQQVLRPALGKFMRQYPDLKVQLNLVNRRVDFIEEGFDVVIRIGQLNDSMLIAKKLGAINRKIFASPSYLAKQGNPDKVEQLTEHQLLIMNPLNISGNKDLKLPLTSTDHETFTLDCQPRLLVDDFSMLKQAIVDGLGIGVLPDYMCRQEVASGQLVNILPDWGMAKVDIYALYPKHRAKIPKVKAFIDFVSELYGEVL , and I need its recorded soluble on expression in E. coli.
**A:** not soluble

**Q:** Consider the sequence shown here: MLSSKFPLLVATDLSPTGKVVLEKAFKLAKRYHKPLFILHVSETTLFAPKIIELTQIEANLCKLLEPFYARYPEVKATLLCRQGGIEESIISAIKETQASLLLIGTSGEDNLLREFFLGSHCRKIIRSSTIPVLVVKNEEESDYSKIFIPTDFSPSSQKMANLTLHLFPHAYISLFHVILKPFEQRLGMYGLDKDEILRYHKDIDNQSASEADHFIEKLKLPSGKHRIKLLMETGVFSAKLCLQKVKEAQSDLIALNTTGNISFFSMDILNQSPKDVLIFKTDSE What is its recorded soluble on expression in E. coli?
**A:** not soluble

**Q:** Param item = GMSLPHLSSGEVASVLPLGKQLTQTPSAALFKEHRLEVMRMVLPAGKQVGSHSVAGPSTIQCLEGEVEIGVDGAQRRLHQGDLLYLGAGAAHDVNAITNTSLLVTVVLVDRGGS ; retrieve measured soluble on expression in E. coli.
**A:** soluble

**Q:** Bench note: what soluble on expression in E. coli did MGSDKIHHHHHHMTMPVPHAGPTPLCSNRMQVHSITQETPDVWTISLVNHDFYPYQPGQYALVSIANSEETLRAYTISSSPGLSRFITLTVRRLDDGVGSRWLTQTLKIGDYLWLSDAQGEFTCANAVSDRYLMAAAGCGVTPIMSMCRWLLANKPQIDIHIIFNVRNPQQVIFASEWQDLVQRYPQQLHLTLMAEFDAAPGFLAGRISGDLLVERVPDITNRTVMTCGPAPYMNQIETLSQQLGVASNRIFKEQFRPTDEVVDEDADQITLTISRPLKNLRVPVGISLLAALEANKVHVLAACRAGVCGSCKTRVLSGKYTTTSTMTLTPAEIEQGYVLACSCQLQGDTVLA show?
**A:** not soluble

**Q:** # get_value(readout='soluble on expression in E. coli', item= MKLPVVESFFSLQGEGKRIGKPSLFLRLGGCNLSCKGFNCKTLLNDEILTGCDSLYAVHPKFKTSWDYYNEPKPLIERLEDLAPNYKDFDFILTGGEPSLYFNNPILISVLEHFYRQKIPLCVESNGSIFFEFSPILKELHFTLSVKLSFSLEEESKRIHLKALQNILNNAKSAHFKFVLESQNAAQSIIEIQSLLKQLSLKNNEIFLMPLGTNNNELDKNLKTLAPLAIKHGFRLSDRLHIRLWDNQKGF )
**A:** not soluble

**Q:** Find the recorded soluble on expression in E. coli belonging to MSKLEELDIVSNNILILKKFYTNDEWKNKLDSLIDRIIKAKKIFIFGVGRSGYIGRCFAMRLMHLGFKSYFVGETTTPSYEKDDLLILISGSGRTESVLTVAKKAKNINNNIIAIVCECGNVVEFADLTIPLEVKKSKYLPMGTTFEETALIFLDLVIAEIMKRLNLDESEIIKRHCNLL and report it.
**A:** soluble

Next:
**Q:** Entry MSLTITVNGVEISEDMIASQLDHYADTPSPRDTAIQQLILHTLLIQQAKSEGLDVADEQQAIQTLLDSKLQVPAIDEASCREFYDRYPERFSAGESAVASHILLPKGEGLEASLIKAKAEGILEEAQANPSRFAALAQEHSTCPSGKQGGSLGQFGRGQMVPEFEQAVFSTEAGQITPHLVETQFGYHIIQVEQRAEGGKIGFDEVKERLQHYLADLAVNQAMHEYLNMLVSAAQISGYQMTAEGHHHHHH : reported soluble on expression in E. coli = ?
**A:** soluble

**Q:** For the sequence shown here, MLHFIDSSESEDDLDELPRHLPPVIRRLAPLRHATSQYNLRSTGSTSSDSSTASENDKCSDFSSLKSRRASCIELNKEDEFKVMAADKLLMAMENMKHATSSQAIRWRTTSTESLPGIIKSNRRHSKGPLELIQGLMAKKAAVGRPAKFKNLGVVGPPTLISSTVSLHEISGFVRRDRFWGAETESLFSQFEV , give the reported soluble on expression in E. coli.
**A:** not soluble

**Q:** Returns the measured soluble on expression in E. coli for the input sequence. Input: MGSDKIHHHHHHMTDPRTTAFNGRVAHASLKGEIEAERYSEGRWMMVQQPIANILDKPRGARTSQLVFGERFLVLDTEDGFSFGQAERDGYVGYILSGALTGAEPATHWVISPATHLYPKAELKVPPDVCLYFGSQVKVTGEKDDFKRIHTGHFMPSQHLMPIKARFRDSVGIADLFLGTPYLWGGTSRWGIDCSGLVQACLLACGVECPRDTDQQEAALGEEIPSDEALKRGDLIFWKGHVGMMASDRMLLHANAHHMSTAYEPLKDAAARIEAKEYGPITSRKRIAMG
**A:** not soluble

**Q:** Quick one: soluble on expression in E. coli of GPLGSMPEVRFQQQLEQLNSMGFINREANLQALIATGGDINAAIERLLGSQLS ?
**A:** soluble

**Q:** Using the record for MIKVDQHYFELIENYRECFNEEQFIARYSDILDKYDYIVGDYGYDQLRLKGFYKDSNKKAEMSKRFSNIQDYIFEYCNFGCPYFVLRHLSKQEVKKLIEEVHPSDVIDDDNKLQDVKIKPTIQDTEHLEHHHHHH , report its soluble on expression in E. coli.
**A:** not soluble

Hey, just so you know, these numbers are from the DeepSol protein solubility set.
